Tested on: VSE775
PROCEDURE DETAILS: MIC, microdilution broth method
Type: cell-based, Enterococcus faecalis
CONDITION INFO: VSE775; in µg/mL
MEASUREMENT TYPE: MIC
I only need the number, thanks.

Which MIC reading was recorded for the molecule CCn1cc(C(=O)O)c(=O)c2cc(F)c(N3CCN(Cc4ccccc4)CC3)cc21 ? 4

Another: O=C(O)c1cn(C2CC2)c2cc(N3CCN(Cc4cccc5cccnc45)CC3)c(F)cc2c1=O 4

---

Test system: VSE775
PROCEDURE DETAILS: MIC, microdilution broth method
Format: cell-based, Enterococcus faecalis
CONDITION INFO: VSE775; in µg/mL
MEASUREMENT TYPE: MIC

Which MIC reading was recorded for the compound CCn1cc(C(=O)O)c(=O)c2cc(F)c(N3CCN(Cc4ccc(CO)cc4)CC3)cc21 [ML-77-148] ? 4-8

Another: C[C@H]1COc2c(N3CCN(c4ccccn4)CC3)c(F)cc3c(=O)c(C(=O)O)cn1c23 [ML-83-0018] 0.25-0.5

Another: C[C@H]1COc2c(N3CCC(Nc4ncccn4)C3)c(F)cc3c(=O)c(C(=O)O)cn1c23 (some centres unmarked) [Compound 82-KSN-L7] 1-2

Another: CCn1cc(C(=O)O)c(=O)c2cc(F)c(N3CCN(Cc4ccc(COC)cc4)CC3)cc21 [ML-83-052] 8-16

Another: Cc1cc(C)cc(CN2CCN(c3cc4c(cc3F)c(=O)c(C(=O)O)cn4C3CC3)CC2)c1 [ML-77-149] 2-4

FYI, the data here is from patent US11746116B2.
